- protocolText: Stability of compounds in human plasma
- testSettings: 1 h, 50% human plasma/PBS pH 7.4, 37° C.
Reported values of % compound remaining after incubation in 50% human plasma for individual entries
measuredEndpoint: % compound remaining after incubation in 50% human plasma (%)

compound: CCCCCCCCCCCCCC(=O)N[C@H](CCCCN)C(=O)N[C@H](CCCCN)C(=O)NCC(=O)NCCNC(=O)[C@H]1NC(=O)[C@H]2NC(=O)[C@H](NC(=O)[C@@H]3NC(=O)[C@H](CC(N)=O)NC(=O)[C@H](NC(=O)[C@@H](CC(C)C)NC)[C@H](O)c4ccc(c(Cl)c4)Oc4cc3cc(c4O[C@@H]3O[C@H](CO)[C@@H](O)[C@H](O)[C@H]3O[C@H]3C[C@](C)(N)[C@H](O)[C@H](C)O3)Oc3ccc(cc3Cl)[C@H]2O)c2ccc(O)c(c2)-c2c(O)cc(O)cc21 [MCC_000227, nC13CO-kkG-NHC2NH-Vanc]
measuredNumber: 102
--
compound: CCCCCCCCCCC(=O)N[C@@H](CCCCN)C(=O)N[C@@H](CCCCN)C(=O)N[C@@H](CCCCN)C(=O)N[C@@H](CCCCNC(=O)[C@H]1NC(=O)[C@H]2NC(=O)[C@H](NC(=O)[C@@H]3NC(=O)[C@H](CC(N)=O)NC(=O)[C@H](NC(=O)[C@@H](CC(C)C)NC)[C@H](O)c4ccc(c(Cl)c4)Oc4cc3cc(c4O[C@@H]3O[C@H](CO)[C@@H](O)[C@H](O)[C@H]3O[C@H]3C[C@](C)(N)[C@H](O)[C@H](C)O3)Oc3ccc(cc3Cl)[C@H]2O)c2ccc(O)c(c2)-c2c(O)cc(O)cc21)C(=O)O [MCC_000229, nC10CO-KKK-K(Vanc)-OH]
measuredNumber: 87

###

- protocolText: Stability of compounds in human plasma
- testSettings: 1 h, 50% human plasma/PBS pH 7.4, 37° C.
measuredEndpoint: % compound remaining after incubation in 50% human plasma (%)

molecule: CCCCCCCCCCC(=O)N[C@@H](CCCCN)C(=O)N[C@@H](CCCCNC(=O)[C@H]1NC(=O)[C@H]2NC(=O)[C@H](NC(=O)[C@@H]3NC(=O)[C@H](CC(N)=O)NC(=O)[C@H](NC(=O)[C@@H](CC(C)C)NC)[C@H](O)c4ccc(c(Cl)c4)Oc4cc3cc(c4O[C@@H]3O[C@H](CO)[C@@H](O)[C@H](O)[C@H]3O[C@H]3C[C@](C)(N)[C@H](O)[C@H](C)O3)Oc3ccc(cc3Cl)[C@H]2O)c2ccc(O)c(c2)-c2c(O)cc(O)cc21)C(=O)O [MCC_000080, nC10CO-K-K(Vanc)-OH]
unitTag: %
measuredNumber: 101
--
molecule: CNC(CC(C)C)C(=O)NC1C(=O)NC(CC(N)=O)C(=O)NC2C(=O)NC3C(=O)NC(C(=O)NC(C(=O)NCCCCC(NC(=O)C(CCCCN)NC(=O)C(CCCCN)NC(=O)C(CCCCNC(=O)c4ccc(Oc5ccccc5)cc4)NC(=O)c4ccc(Oc5ccccc5)cc4)C(=O)O)c4cc(O)cc(O)c4-c4cc3ccc4O)C(O)c3ccc(c(Cl)c3)Oc3cc2cc(c3OC2OC(CO)C(O)C(O)C2OC2CC(C)(N)C(O)C(C)O2)Oc2ccc(cc2Cl)C1O (stereo not shown)
unitTag: %
measuredNumber: 107
--
molecule: CCCCCCCCCCCCCC(=O)N[C@@H](CCCCN)C(=O)N[C@@H](CCCCN)C(=O)N[C@@H](CCCCN)C(=O)N[C@@H](CCCCNC(=O)[C@H]1NC(=O)[C@H]2NC(=O)[C@H](NC(=O)[C@@H]3NC(=O)[C@H](CC(N)=O)NC(=O)[C@H](NC(=O)[C@@H](CC(C)C)NC)[C@H](O)c4ccc(c(Cl)c4)Oc4cc3cc(c4O[C@@H]3O[C@H](CO)[C@@H](O)[C@H](O)[C@H]3O[C@H]3C[C@](C)(N)[C@H](O)[C@H](C)O3)Oc3ccc(cc3Cl)[C@H]2O)c2ccc(O)c(c2)-c2c(O)cc(O)cc21)C(=O)O [MCC_000223, nC13CO-KKK-K(Vanc)-OH]
unitTag: %
measuredNumber: 174
--
molecule: CN[C@H](CC(C)C)C(=O)N[C@H]1C(=O)N[C@@H](CC(N)=O)C(=O)N[C@H]2C(=O)N[C@H]3C(=O)NC(C(=O)N[C@H](C(=O)O)c4cc(O)cc(O)c4-c4cc3ccc4O)[C@H](O)c3ccc(c(Cl)c3)Oc3cc2cc(c3OC2OC(CO)C(O)C(O)C2OC2CC(C)(N)C(O)C(C)O2)Oc2ccc(cc2Cl)[C@H]1O (stereo partly shown) [MCC_000095, vancomycin, reference compound]
unitTag: %
measuredNumber: 176

###

- Test system: Enterococcus faecium MDR Van A ATCC 51559
- protocolText: MIC assay, E. faecium MDR Van A ATCC 51559
- Format: cell-based
- testSettings: 24 h incubation, visual reading
- Experimental: Antimicrobial activity of compounds was tested against a number of bacterial strains, including Staphylococcus aureus (MRSA ATCC 43300, GISA NRS17, VISA NRS1, MRSA clinical isolate, daptomycin resistant clinical isolate), Streptococcus pneumoniae (MDR ATCC 700677), Enterococcus faecalis (VanA clinical isolate) and Enterococcus faecium (MDR Van A ATCC 51559). All compounds were prepared to 160 μg/ml solution in water from a stock solution of 1 mM concentration. […]
measuredEndpoint: Minimum Inhibitory Concentration (MIC) E. faecium ATCC51559

compound: CCCCCCCCC(=O)NC(CCCCN)C(=O)NC(CCCCN)C(=O)NC(CCCCNC(=O)C1NC(=O)C2NC(=O)C(NC(=O)C3NC(=O)C(CC(N)=O)NC(=O)C(NC(=O)C(CC(C)C)NC)C(O)c4ccc(c(Cl)c4)Oc4cc3cc(c4OC3OC(CO)C(O)C(O)C3OC3CC(C)(N)C(O)C(C)O3)Oc3ccc(cc3Cl)C2O)c2ccc(O)c(c2)-c2c(O)cc(O)cc21)C(=O)NC (centres unmarked)
result: x (x = >4)
//
compound: CCCCCCCCCCC(=O)NCC(=O)N[C@@H](CCCCN)C(=O)N[C@@H](CCCCN)C(=O)N[C@@H](CCCCN)C(=O)N[C@@H](CCCCNC(=O)[C@H]1NC(=O)[C@H]2NC(=O)[C@H](NC(=O)[C@@H]3NC(=O)[C@H](CC(N)=O)NC(=O)[C@H](NC(=O)[C@@H](CC(C)C)NC)[C@H](O)c4ccc(c(Cl)c4)Oc4cc3cc(c4O[C@@H]3O[C@H](CO)[C@@H](O)[C@H](O)[C@H]3O[C@H]3C[C@](C)(N)[C@H](O)[C@H](C)O3)Oc3ccc(cc3Cl)[C@H]2O)c2ccc(O)c(c2)-c2c(O)cc(O)cc21)C(=O)O
result: x (x = >4)
//
compound: CCCCCCCCCCC(=O)N[C@@H](CCCCN)C(=O)N[C@@H](CCCCN)C(=O)N[C@@H](CCCCNC(=O)CNC(=O)[C@H]1NC(=O)[C@H]2NC(=O)[C@H](NC(=O)[C@@H]3NC(=O)[C@H](CC(N)=O)NC(=O)[C@H](NC(=O)[C@@H](CC(C)C)NC)[C@H](O)c4ccc(c(Cl)c4)Oc4cc3cc(c4O[C@@H]3O[C@H](CO)[C@@H](O)[C@H](O)[C@H]3O[C@H]3C[C@](C)(N)[C@H](O)[C@H](C)O3)Oc3ccc(cc3Cl)[C@H]2O)c2ccc(O)c(c2)-c2c(O)cc(O)cc21)C(=O)O
result: x (x = >4)

###

- System: Enterococcus faecium MDR Van A ATCC 51559
- protocolText: MIC assay, E. faecium MDR Van A ATCC 51559
- Format: cell-based
- testSettings: 24 h incubation, visual reading
measuredEndpoint: Minimum Inhibitory Concentration (MIC) E. faecium ATCC51559

compound: CNC(CC(C)C)C(=O)NC1C(=O)NC(CC(N)=O)C(=O)NC2C(=O)NC3C(=O)NC(C(=O)NC(C(=O)NCCCNC(=O)C(CCCCN)NC(=O)C(CCCCN)NC(=O)c4ccc(Oc5ccccc5)cc4)c4cc(O)cc(O)c4-c4cc3ccc4O)C(O)c3ccc(c(Cl)c3)Oc3cc2cc(c3OC2OC(CO)C(O)C(O)C2OC2CC(C)(N)C(O)C(C)O2)Oc2ccc(cc2Cl)C1O (centres unmarked)
result: xx (xx = 1-4)
//
compound: CNC(CC(C)C)C(=O)NC1C(=O)NC(CC(N)=O)C(=O)NC2C(=O)NC3C(=O)NC(C(=O)NC(C(=O)NCCCCC(NC(=O)C(CCCCN)NC(=O)C(CCCCN)NC(=O)C(CCCCNC(=O)c4ccc(Oc5ccccc5)cc4)NC(=O)c4ccc(Oc5ccccc5)cc4)C(=O)O)c4cc(O)cc(O)c4-c4cc3ccc4O)C(O)c3ccc(c(Cl)c3)Oc3cc2cc(c3OC2OC(CO)C(O)C(O)C2OC2CC(C)(N)C(O)C(C)O2)Oc2ccc(cc2Cl)C1O (centres unmarked)
result: xx (xx = 1-4)
//
compound: CNC(=O)[C@H](CCCCNC(=O)[C@H]1NC(=O)[C@H]2NC(=O)[C@H](NC(=O)[C@@H]3NC(=O)[C@H](CC(N)=O)NC(=O)[C@H](NC(=O)[C@@H](CC(C)C)NC)[C@H](O)c4ccc(c(Cl)c4)Oc4cc3cc(c4O[C@@H]3O[C@H](CO)[C@@H](O)[C@H](O)[C@H]3O)Oc3ccc(cc3Cl)[C@H]2O)c2ccc(O)c(c2)-c2c(O)cc(O)cc21)NC(=O)[C@H](CCCCN)NC(=O)[C@H](CCCCN)NC(=O)[C@H](CCCCNC(=O)CCCOc1ccccc1)NC(=O)CCCOc1ccccc1
result: x (x = >4)
//
compound: CN[C@H](CC(C)C)C(=O)N[C@H]1C(=O)N[C@@H](CC(N)=O)C(=O)N[C@H]2C(=O)N[C@H]3C(=O)N[C@H](C(=O)N[C@H](C(=O)NCCCC[C@H](NC(=O)[C@H](CCCCN)NC(=O)[C@H](CCCCN)NC(=O)c4ccc(Cl)cc4)C(=O)O)c4cc(O)cc(O)c4-c4cc3ccc4O)[C@H](O)c3ccc(c(Cl)c3)Oc3cc2cc(c3O[C@@H]2O[C@H](CO)[C@@H](O)[C@H](O)[C@H]2O[C@H]2C[C@](C)(N)[C@H](O)[C@H](C)O2)Oc2ccc(cc2Cl)[C@H]1O
result: x (x = >4)
